Target System: farnesyl protein transferase (Rattus norvegicus, UniProt Q02293+Q04631)
Construct: partially purified rat brain farnesyl protein transferase (FPT)
Experiment Notes: FPT IC50 (inhibition of farnesyl protein transferase, in vitro enzyme assay; Ras-CVLS farnesylation by partially purified rat brain FPT)
Strictly below 0.07 µM in IC50: Fulfilled. Otherwise: Not fulfilled.

# Molecule, Assigned Class
rows = [
    ("N#CN=C(Nc1ccc(N2CCOCC2)cc1)N1CCC(=C2c3ccc(Cl)c(Br)c3CCc3cc(Br)cnc32)CC1", "Fulfilled"),
    ("N#CN=C(Nc1cccnc1)N1CCC(=C2c3ccc(Cl)cc3CCc3cc(Br)cnc32)CC1", "Not fulfilled"),
    ("N#CN=C(NCc1ccco1)N1CCC(=C2c3ccc(Cl)cc3CCc3cc(Br)cnc32)CC1", "Not fulfilled"),
    ("COc1ccc2[nH]cc(CCNC(=NC#N)N3CCC(=C4c5ccc(Cl)cc5CCc5cc(Br)cnc54)CC3)c2c1", "Not fulfilled"),
    ("N#CN=C(Nc1ccc2c(c1)COCO2)N1CCN(C2c3ccc(Cl)cc3CCc3cc(Br)cnc32)CC1 (stereo not shown)", "Fulfilled"),
    ("N#CN=C(Nc1ccc2c(c1)OCCO2)N1CCC(=C2c3ccc(Cl)cc3CCc3cc(Br)cnc32)CC1", "Not fulfilled"),
    ("N#CN=C(NCc1cccnc1)N1CCC(=C2c3ccc(Cl)c(Br)c3CCc3cc(Br)cnc32)CC1", "Fulfilled"),
]

* * *

Target System: farnesyl protein transferase (Rattus norvegicus, UniProt Q02293+Q04631)
Construct: partially purified rat brain farnesyl protein transferase (FPT)
Experiment Notes: FPT IC50 (inhibition of farnesyl protein transferase, in vitro enzyme assay; Ras-CVLS farnesylation by partially purified rat brain FPT)

# Compound, Units Symbol, Operator, IC50
records = [
    ("CN1CCN(NC(=NC#N)N2CCC(=C3c4ccc(Cl)cc4CCc4cc(Br)cnc43)CC2)CC1 [Example 31]", "nM", "=", 260),
    ("N#CN=C(Nc1ccc2c(c1)COCO2)N1CCC(=C2c3ccc(Cl)c(Br)c3CCc3cccnc32)CC1 [Example 47]", "nM", "=", 14),
    ("N#CN=C(Nc1ccc2c(c1)COCO2)N1CCC(C2c3ccc(Cl)cc3C=Cc3cc(Br)cnc32)CC1 (stereo not shown) [Example 34]", "nM", "=", 9600),
    ("N#CN/C(=N/c1ccncc1)N1CCC(=C2c3ccc(Cl)cc3CCc3cc(Br)cnc32)CC1 [Example 54]", "nM", ">", 110),
]

* * *

Target System: farnesyl protein transferase (Rattus norvegicus, UniProt Q02293+Q04631)
Construct: partially purified rat brain farnesyl protein transferase (FPT)
Experiment Notes: FPT IC50 (inhibition of farnesyl protein transferase, in vitro enzyme assay; Ras-CVLS farnesylation by partially purified rat brain FPT)
pIC50: −log10 of the molar value.
Note to self: class = bucket of pIC50, per class 0 = under 7, class 1 = from 7 up to 8, class 2 = 8 and over

# Compound, Assigned Class
data = [
    ("N#CN=C(NCc1ccc2c(c1)OCO2)N1CCC(=C2c3ccc(Cl)c(Br)c3CCc3cc(Br)cnc32)CC1", "class 0"),
    ("N#CN/C(=N/Cc1ccc2c(c1)OCO2)N1CCC(=C2c3ccc(Cl)cc3CCc3cc(Br)cnc32)CC1", "class 1"),
    ("CSC(=NC#N)N1CCC(=C2c3ccc(Cl)cc3CCc3cc(Br)cnc32)CC1 [Example 73]", "class 1"),
    ("N#CN=C(Nc1ccc2c(c1)COCO2)N1CCC(=C2c3ccc(Cl)cc3CCc3cccnc32)CC1", "class 1"),
    ("N#CN=C(N1CCCCC1)N1CCC(=C2c3ccc(Cl)cc3CCc3cc(Br)cnc32)CC1", "class 0"),
    ("N#CN=C(NCc1ccc[n+]([O-])c1)N1CCC(=C2c3ccc(Cl)c(Br)c3CCc3cc(Br)cnc32)CC1", "class 2"),
    ("N#CN=C(N)N1CCC(=C2c3ccc(Cl)cc3CCc3cc(Br)cnc32)CC1", "class 0"),
    ("N#CN=C(NCc1ccncc1)N1CCC(C2c3ccc(Cl)c(Br)c3CCc3cc(Br)cnc32)CC1 (stereo not shown)", "class 2"),
    ("N#CN=C(NCC1CCN(C(N)=O)CC1)N1CCC(=C2c3ccc(Cl)c(Br)c3CCc3cc(Br)cnc32)CC1", "class 2"),
    ("N#CN=C(N1CCOCC1)N1CCC(=C2c3ccc(Cl)cc3CCc3cc(Br)cnc32)CC1", "class 0"),
    ("Cn1c(NC(=NC#N)N2CCC(=C3c4ccc(Cl)cc4CCc4cc(Br)cnc43)CC2)cc(=O)n(C)c1=O", "class 0"),
]
